All values here come from PubChem BioAssay (NCI).

- assay protocol: NCI Yeast Anticancer Drug Screen. Data for the sgs1 mgt1 strain (AID 161);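 also: 0% = growth of cultures given vehicle only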
- experimental parameters: S. cerevisiae sgs1 mgt1 strain, at 50.0 µM, hits give high values
This is part of a sample that, as a whole, favours compounds with a hit. Of some 79,000 tested, about 15% had one in any assay.
quantity: growth inhibition (%)

- compound: "Cc1nsc2[nH]c(=O)n(Nc3ccc(O)cc3)c(=O)c12"
  quantity: "growth inhibition"
  units symbol: "%"
  data value: -18.7
- compound: "CCOC(=O)/C(=C/c1ccc(C#N)cc1)N(CC)CC"
  quantity: "growth inhibition"
  units symbol: "%"
  data value: -9
- compound: "Nc1ncnc2c1N=C(c1ccccc1)CC(c1ccccc1)N2 (stereo unspecified)"
  quantity: "growth inhibition"
  units symbol: "%"
  data value: -4.15
- compound: "COC(=O)NN=C1C(C)(C)C(=NNC(=O)OC)C1(C)C"
  quantity: "growth inhibition"
  units symbol: "%"
  data value: -8.6
- compound: "CCCCSc1nc2ccc(N=Cc3ccccc3O)cc2s1"
  quantity: "growth inhibition"
  units symbol: "%"
  data value: -4.45
- compound: "COc1cccc(-c2cc(=O)c3cc(N4CCCC4)ccc3[nH]2)c1"
  quantity: "growth inhibition"
  units symbol: "%"
  data value: -19.9
